# System: K12877-001-R-J1-PDC complex spheroid viability
# Experiment: Anticancer human tumor K12877-001-R-J1-PDC patient-derived lung adenocarcinoma cell line growth inhibition [RAS]
# Test Settings: second compound 0.1 µM; first compound 0.316 µM; active compounds read low
Listing: viability, T/C of selected compounds
Outcome Measure: viability, T/C (%)

1. Cc1nc(N2CCC3(CC2)COC(C)C3N)c(CO)nc1Sc1ccnc(N)c1Cl (centres undefined) + C=CC(=O)N1CCN(c2nc(OCC3CCCN3C)nc3c(F)c(-c4nc(N)cc(C)c4C(F)(F)F)c(Cl)cc23)C(C)C1    85.7
2. CC(Nc1ccc2c(c1)OCCn1cc(N3C(=O)OCC3C(F)F)nc1-2)C(N)=O (centres undefined) + C#Cc1c(F)ccc2cc(O)cc(-c3ncc4c(N5CC6CCC(C5)N6)nc(OCC56CCCN5CC(F)C6)nc4c3F)c12    84.6
3. C[C@@H](NC(=O)c1ncnc(N)c1Cl)c1ncc(C(=O)Nc2cc(C(F)(F)F)c(Cl)cn2)s1 + C#Cc1c(F)ccc2cc(O)cc(-c3ncc4c(N5CC6CCC(C5)N6)nc(OCC56CCCN5CC(F)C6)nc4c3F)c12    93.5
4. CC(=O)OC12COC1CC(O)C1(C)C(=O)C(O)C3=C(C)C(OC(=O)C(O)C(NC(=O)OC(C)(C)C)c4ccccc4)CC(O)(C(OC(=O)c4ccccc4)C21)C3(C)C (centres undefined) + C=CC(=O)N1CCN(c2nc(OCC3CCCN3C)nc3c(F)c(-c4nc(N)cc(C)c4C(F)(F)F)c(Cl)cc23)C(C)C1    2.95
5. CCN1CCN(Cc2ccc(Nc3ncc(F)c(-c4cc(F)c5nc(C)n(C(C)C)c5c4)n3)nc2)CC1 + C=CC(=O)N1CCN(c2nc(OCC3CCCN3C)nc3c(F)c(-c4nc(N)cc(C)c4C(F)(F)F)c(Cl)cc23)C(C)C1    65.8
6. CC(C)NCC(C(=O)N1CCN(c2ncnc3c2C(C)CC3O)CC1)c1ccc(Cl)cc1 (centres undefined) + C=CC(=O)N1CCN(c2nc(OCC3CCCN3C)nc3c(F)c(-c4nc(N)cc(C)c4C(F)(F)F)c(Cl)cc23)C(C)C1    82.4
7. CC1(O)CCCC1n1c(=O)c(C(F)F)cc2cnc(NC3CCN(S(C)(=O)=O)CC3)nc21 (centres undefined) + C#Cc1c(F)ccc2cc(O)cc(-c3ncc4c(N5CC6CCC(C5)N6)nc(OCC56CCCN5CC(F)C6)nc4c3F)c12    87.7
8. CCN1CCN(Cc2ccc(Nc3ncc(F)c(-c4cc(F)c5nc(C)n(C(C)C)c5c4)n3)nc2)CC1 + C#Cc1c(F)ccc2cc(O)cc(-c3ncc4c(N5CC6CCC(C5)N6)nc(OCC56CCCN5CC(F)C6)nc4c3F)c12    118
9. CC1(O)CCCC1n1c(=O)c(C(F)F)cc2cnc(NC3CCN(S(C)(=O)=O)CC3)nc21 (centres undefined) + C=CC(=O)N1CCN(c2nc(OCC3CCCN3C)nc3c(F)c(-c4nc(N)cc(C)c4C(F)(F)F)c(Cl)cc23)C(C)C1    59.2

---

Catalogue of compounds with associated viability, T/C
# System: K12877-001-R-J1-PDC complex spheroid viability
# Experiment: Anticancer human tumor K12877-001-R-J1-PDC cell line growth inhibition [RAS];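 also: tumour cells co-cultured with HUVEC and mesenchymal stem cells in spheroids; spheroids exposed to agents for one week before readout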
# Test Settings: second compound 0.003 µM; first compound 1 µM; active compounds read low
Outcome Measure: viability, T/C

1) C[C@@H](NC(=O)c1ncnc(N)c1Cl)c1ncc(C(=O)Nc2cc(C(F)(F)F)c(Cl)cn2)s1 + CCn1c(-c2cccnc2C(C)OC)c2c3cc(ccc31)N1CCOC(CC(NC(=O)C(C(C)C)N(C)C(=O)C3(F)CCN(C(=O)C#CC(C)(C)N(C)C)CC3)C(=O)N3CCCC(N3)C(=O)OCC(C)(C)C2)C1    82%
2) C[C@@H](NC(=O)c1ncnc(N)c1Cl)c1ncc(C(=O)Nc2cc(C(F)(F)F)c(Cl)cn2)s1 + CCn1c(-c2cc(N3CCN(C)CC3)cnc2C(C)OC)c2c3cc(ccc31)-c1csc(n1)CC(NC(=O)C1CC1C)C(=O)N1CCCC(N1)C(=O)OCC(C)(C)C2    83.6%
3) CC1(O)CCCC1n1c(=O)c(C(F)F)cc2cnc(NC3CCN(S(C)(=O)=O)CC3)nc21 (centres undefined) + CCn1c(-c2cccnc2C(C)OC)c2c3cc(ccc31)N1CCOC(CC(NC(=O)C(C(C)C)N(C)C(=O)C3(F)CCN(C(=O)C#CC(C)(C)N(C)C)CC3)C(=O)N3CCCC(N3)C(=O)OCC(C)(C)C2)C1    34.5%
4) Nc1ccn(C2OC(CO)C(O)C2(F)F)c(=O)n1 (centres undefined) + CCn1c(-c2cccnc2C(C)OC)c2c3cc(ccc31)N1CCOC(CC(NC(=O)C(C(C)C)N(C)C(=O)C3(F)CCN(C(=O)C#CC(C)(C)N(C)C)CC3)C(=O)N3CCCC(N3)C(=O)OCC(C)(C)C2)C1    3.83%

---

# Test system: K12877-001-R-J1-PDC complex spheroid viability
# Experiment: Anticancer human tumor K12877-001-R-J1-PDC cell line growth inhibition [RAS];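 also: tumour cells co-cultured with HUVEC and mesenchymal stem cells in spheroids; spheroids exposed to agents for one week before readout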
# Test Settings: second compound 10 µM; first compound 1 µM; active compounds read low
# Text: RAS pathway inhibitors in Combinations in Complex Spheroids A high-throughput screen of multi-cell type tumor spheroids was designed to identify active combinations of RAS pathway inhibitors and targeted small molecules. Complex spheroids include a stromal component modeled by human endothelial cells (HUVEC) and fibroblasts modeled by human mesenchymal stem cells (MSCs). […] Compounds. […] If the clinical Cmax for an agent had not been determined, the highest concentration tested was 10 microM. […]
Outcome Measure: viability, T/C

1. CCC(CC)c1cc(NC2CCC(N)C2)n2nccc2n1 (configuration not stated) + C#Cc1c(F)ccc2cc(O)cc(-c3ncc4c(N5CC6CCC(C5)N6)nc(OCC56CCCN5CC(F)C6)nc4c3F)c12    72.4%
2. C[C@@H](NC(=O)c1ncnc(N)c1Cl)c1ncc(C(=O)Nc2cc(C(F)(F)F)c(Cl)cn2)s1 + C#Cc1c(F)ccc2cc(O)cc(-c3ncc4c(N5CC6CCC(C5)N6)nc(OCC56CCCN5CC(F)C6)nc4c3F)c12    98%
3. C=CC(=O)Nc1cc(Nc2nccc(-c3cn(C)c4ccccc34)n2)c(OC)cc1N(C)CCN(C)C + C#Cc1c(F)ccc2cc(O)cc(-c3ncc4c(N5CC6CCC(C5)N6)nc(OCC56CCCN5CC(F)C6)nc4c3F)c12    79.2%
4. Nc1ccn(C2OC(CO)C(O)C2(F)F)c(=O)n1 (configuration not stated) + C#Cc1c(F)ccc2cc(O)cc(-c3ncc4c(N5CC6CCC(C5)N6)nc(OCC56CCCN5CC(F)C6)nc4c3F)c12    5.24%
5. CC(C)NCC(C(=O)N1CCN(c2ncnc3c2C(C)CC3O)CC1)c1ccc(Cl)cc1 (configuration not stated) + C#Cc1c(F)ccc2cc(O)cc(-c3ncc4c(N5CC6CCC(C5)N6)nc(OCC56CCCN5CC(F)C6)nc4c3F)c12    94.1%
6. Cc1nc(N2CCC3(CC2)COC(C)C3N)c(CO)nc1Sc1ccnc(N)c1Cl (configuration not stated) + C#Cc1c(F)ccc2cc(O)cc(-c3ncc4c(N5CC6CCC(C5)N6)nc(OCC56CCCN5CC(F)C6)nc4c3F)c12    83.4%
7. NC1c2ccccc2OC12CCN(c1cnc3c(N4CCCc5ncccc54)n[nH]c3n1)CC2 (configuration not stated) + C#Cc1c(F)ccc2cc(O)cc(-c3ncc4c(N5CC6CCC(C5)N6)nc(OCC56CCCN5CC(F)C6)nc4c3F)c12    91.8%

---

# viability, T/C values compiled below
# Test system: K12877-001-R-J1-PDC complex spheroid viability
# Experiment: Anticancer human tumor K12877-001-R-J1-PDC cell line growth inhibition [RAS];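 also: tumour cells co-cultured with HUVEC and mesenchymal stem cells in spheroids; spheroids exposed to agents for one week before readout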
# Test Settings: second compound 10 µM; first compound 1 µM; active compounds read low
Outcome Measure: viability, T/C (%)

1) CCN1CCN(Cc2ccc(Nc3ncc(F)c(-c4cc(F)c5nc(C)n(C(C)C)c5c4)n3)nc2)CC1 + C#Cc1c(F)ccc2cc(O)cc(-c3ncc4c(N5CC6CCC(C5)N6)nc(OCC56CCCN5CC(F)C6)nc4c3F)c12    56.7
2) O=C(c1ccc(F)c(F)c1Nc1ccc(I)cc1F)N1CC(O)([C@@H]2CCCCN2)C1 + C#Cc1c(F)ccc2cc(O)cc(-c3ncc4c(N5CC6CCC(C5)N6)nc(OCC56CCCN5CC(F)C6)nc4c3F)c12    63.8
3) C=CC(=O)N1CCN(c2nc(OCC3CCCN3C)nc3c(F)c(-c4nc(N)cc(C)c4C(F)(F)F)c(Cl)cc23)C(C)C1 (stereo not drawn) + C#Cc1c(F)ccc2cc(O)cc(-c3ncc4c(N5CC6CCC(C5)N6)nc(OCC56CCCN5CC(F)C6)nc4c3F)c12    83.2
